ASSAY: Plasma and brain concentrations in 4L;C* mice
Type: in vivo, mouse
EXPERIMENTAL PARAMETERS: both sexes, 4L;C* (C57BL/6 J/129SvEV), mouse, plasma, ip, 90 mg kg^–1, 4L;C* mice, 90 mg kg^–1 i.p., 1 h after last dose (day 14); read-out: Cp,u (μM) plasma unbounded concentration
OBSERVABLE: concentration at 1 h
Number first, unit second: that is the form wanted.

Reported concentration at 1 h, compound CC(C)CNC(=O)n1c(=O)oc2cc(C3CCN(C)CC3)ccc21 [22m] : ____
2.32 µM

----------
ASSAY: Aqueous kinetic solubility assay
Type: physicochemical
EXPERIMENTAL PARAMETERS: PBS, pH 7.4
Item-by-item account of solubility at 1 h

Some solved cases for reference:
CCCCCNC(=O)n1c(=O)oc2cc(-c3ccc(F)cc3)ccc21 ... < 1 µM
CCN1CCN(c2ccc3c(c2)oc(=O)n3C(=O)NCCCCc2ccccc2)CC1 [23g] ... < 1 µM
O=C(NCCCCc1ccccc1)n1c2c(oc1=O)CCNC2 [12b] ... 82 µM
CC(C)CNC(=O)n1c(=O)oc2ccc(C3CCN(C)CC3)cc21 [24c] ... 60 µM
Cl.O=C(NCCCCc1ccccc1)n1c(=O)oc2cc(N3CCNCC3)ccc21 [23e] ... 20 µM
O=C(NCCCCc1ccccc1)n1c2c(oc1=O)CNCC2 [17b] ... 230 µM

Name the reported solubility at 1 h value associated with the molecule CN1CCN(c2ccc3c(c2)oc(=O)n3C(=O)NCCCCc2ccccc2)CC1 [23f]
< 1 µM
